testedTarget: melanocortin-3 receptor (human, UniProt P41968 1-323)
Sequence (P41968 whole entry): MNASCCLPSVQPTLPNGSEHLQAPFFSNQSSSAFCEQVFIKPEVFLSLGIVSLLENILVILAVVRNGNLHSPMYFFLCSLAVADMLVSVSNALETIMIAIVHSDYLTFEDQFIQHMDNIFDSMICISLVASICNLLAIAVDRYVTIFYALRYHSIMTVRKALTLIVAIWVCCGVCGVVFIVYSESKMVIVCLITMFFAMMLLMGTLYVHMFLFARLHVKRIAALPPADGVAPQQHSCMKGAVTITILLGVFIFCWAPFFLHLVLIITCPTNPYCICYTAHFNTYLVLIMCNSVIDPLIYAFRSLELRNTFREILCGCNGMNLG
experimentDescription: cell-based or functional assay
Bridge positions count the residues as written; N and C are the ends. Square brackets hold non-standard residues; d marks the D form. hCys = N[C@@H](CCS)C(=O)O
propertyLabel: Ratios of EC50 values MC 3/4 (MC3R against MC4R)

• Ac-RC[dV]H[dF]RWC-NH2 (disulfide 2-8) [Ac-Arg-cyclo[Cys-D-Val-His-D-Phe-Arg-Trp-Cys]-NH2] = 1.19 ratio
• Ac-RC[dA]W[dF]RWC-NH2 (disulfide 2-8; SMILES CC(=O)N[C@@H](CCCNC(=N)N)C(=O)N[C@H]1CSSC[C@@H](C(N)=O)NC(=O)[C@H](Cc2c[nH]c3ccccc23)NC(=O)[C@H](CCCNC(=N)N)NC(=O)[C@@H](Cc2ccccc2)NC(=O)[C@H](Cc2c[nH]c3ccccc23)NC(=O)[C@@H](C)NC1=O) [Ac-Arg-cyclo[Cys-D-Ala-Trp-D-Phe-Arg-Trp-Cys]-NH2] = > 290 ratio
• Ac-R[hCys]A[dF]RWC-NH2 (disulfide 2-7; SMILES CC(=O)N[C@@H](CCCNC(=N)N)C(=O)N[C@H]1CCSSC[C@@H](C(N)=O)NC(=O)[C@H](Cc2c[nH]c3ccccc23)NC(=O)[C@H](CCCNC(=N)N)NC(=O)[C@@H](Cc2ccccc2)NC(=O)[C@H](C)NC1=O) [Ac-Arg-cyclo[hCys-Ala-D-Phe-Arg-Trp-Cys]-NH2] = 3.8 ratio
• Ac-RC[dA]P[dF]RWC-NH2 (disulfide 2-8; SMILES CC(=O)N[C@@H](CCCNC(=N)N)C(=O)N[C@H]1CSSC[C@@H](C(N)=O)NC(=O)[C@H](Cc2c[nH]c3ccccc23)NC(=O)[C@H](CCCNC(=N)N)NC(=O)[C@@H](Cc2ccccc2)NC(=O)[C@@H]2CCCN2C(=O)[C@@H](C)NC1=O) [Ac-Arg-cyclo[Cys-D-Ala-Pro-D-Phe-Arg-Trp-Cys]-NH2] = > 200 ratio
• Ac-RC[dA]Y[dF]RWC-NH2 (disulfide 2-8; SMILES CC(=O)N[C@@H](CCCNC(=N)N)C(=O)N[C@H]1CSSC[C@@H](C(N)=O)NC(=O)[C@H](Cc2c[nH]c3ccccc23)NC(=O)[C@H](CCCNC(=N)N)NC(=O)[C@@H](Cc2ccccc2)NC(=O)[C@H](Cc2ccc(O)cc2)NC(=O)[C@@H](C)NC1=O) [Ac-Arg-cyclo[Cys-D-Ala-Tyr-D-Phe-Arg-Trp-Cys]-NH2] = > 22.2 ratio
• Ac-ECAH[dF]RWC-NH2 (disulfide 2-8; SMILES CC(=O)N[C@@H](CCC(=O)O)C(=O)N[C@H]1CSSC[C@@H](C(N)=O)NC(=O)[C@H](Cc2c[nH]c3ccccc23)NC(=O)[C@H](CCCNC(=N)N)NC(=O)[C@@H](Cc2ccccc2)NC(=O)[C@H](Cc2c[nH]cn2)NC(=O)[C@H](C)NC1=O) [Ac-Glu-cyclo[Cys-Ala-His-D-Phe-Arg-Trp-Cys]-NH2] = > 20 ratio

FYI, the data here is from patent US20210040155A1.
